meta.source: the Immune Epitope Database (IEDB)

molecular target: HLA-B*35:01; test: IEDB peptide-MHC binding, purified MHC/competitive/fluorescence; bounds were set here for any values at or beyond the usual limits of such assays; conditions: source organism: Monodelphis domestica
pIC50: −log10 of the molar value.
measured_quantity: pIC50

>>> df
         chain  measured_quantity  observed
0  LEYFQFVKKLL              pIC50    ≤ 4.70

###

target: HLA-A*02:01; test: IEDB peptide-MHC binding, purified MHC/direct/fluorescence; filed as Kd, often an IC50 or EC50 that approximates it; bounds were set here for any values at or beyond the usual limits of such assays; conditions: source organism: Francisella tularensis subsp. holarctica LVS
measured_quantity: Kd (nM)

>>> print(df.to_string())
       chain  target_under_test  measured_quantity  observed
0  FLYDISISL        HLA-A*02:01                 Kd       1.1

###

biological target: HLA-B*14:02; assay: IEDB peptide-MHC binding, purified MHC/competitive/fluorescence; filed as Kd, often an IC50 or EC50 that approximates it; bounds were set here for any values at or beyond the usual limits of such assays; conditions: source organism: Bacillus anthracis str. A0488
pKd: −log10 of the molar value.
measured_quantity: pKd

>>> df
       chain  observed
0  WDAYIPHYV    ≤ 5.30

###

target: HLA-A*02:19; test: IEDB peptide-MHC binding, purified MHC/direct/fluorescence; filed as Kd, often an IC50 or EC50 that approximates it; bounds were set here for any values at or beyond the usual limits of such assays; settings: source organism: Sudan ebolavirus
measured_quantity: Kd

>>> print(df.to_string())
       chain  target_under_test  observed
0  TMMRHRREL        HLA-A*02:19   ≥ 20 µM

###

target: HLA-B*08:01; experiment: IEDB peptide-MHC binding, purified MHC/direct/fluorescence; filed as Kd, often an IC50 or EC50 that approximates it; bounds were set here for any values at or beyond the usual limits of such assays; conditions: source organism: Mycobacterium tuberculosis str. Haarlem
pKd: −log10 of the molar value.
measured_quantity: pKd

>>> df
       chain  observed
0  APAKKAAPA      7.11

###

# pKd values compiled below
target: HLA-B*40:01; assay: IEDB peptide-MHC binding, purified MHC/direct/fluorescence; filed as Kd, often an IC50 or EC50 that approximates it; bounds were set here for any values at or beyond the usual limits of such assays; conditions: source organism: Giardia intestinalis
pKd: −log10 of the molar value.
measured_quantity: pKd

       chain  target_under_test  measured_quantity  observed
0  DYAMHGTVF        HLA-B*40:01                pKd    ≤ 4.70
1  GYTPGQQFY        HLA-B*40:01                pKd    ≤ 4.70

###

target: HLA-B*18:01; assay: IEDB peptide-MHC binding, purified MHC/competitive/fluorescence; filed as Kd, often an IC50 or EC50 that approximates it; bounds were set here for any values at or beyond the usual limits of such assays; settings: source organism: Variola virus
measured_quantity: Kd (nM)

>>> print(df.to_string())
       chain  measured_quantity  observed
0  EYKKFIATF                 Kd      58.3

###

target: HLA-B*27:05; test: IEDB peptide-MHC binding, purified MHC/direct/fluorescence; filed as Kd, often an IC50 or EC50 that approximates it; bounds were set here for any values at or beyond the usual limits of such assays; conditions: source organism: Bacillus anthracis
pKd: −log10 of the molar value.
measured_quantity: pKd

       chain  observed
0  RRMMMRITE      6.55
